- measured-on: SARS-CoV-2 spike receptor binding domain (native RBD) (SARS-CoV-2, UniProt P0DTC2 330-532)
measurement-name: pKd
On this scale, pKd is minus log10 of a concentration expressed in M (mol/L).

Look up pKd: antibody 318 (antibody, V domains shown) VH: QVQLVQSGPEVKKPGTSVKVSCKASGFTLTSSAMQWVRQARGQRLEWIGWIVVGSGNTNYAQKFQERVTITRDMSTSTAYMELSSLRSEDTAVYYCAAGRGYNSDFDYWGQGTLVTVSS VL: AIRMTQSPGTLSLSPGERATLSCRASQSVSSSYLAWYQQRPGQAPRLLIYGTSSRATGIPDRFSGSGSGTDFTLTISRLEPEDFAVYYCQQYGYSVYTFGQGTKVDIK 8.65

Source of measurements: patent US20240043507A1
